Listing of recorded total protein half-life in vivo by entry.
- PROTOCOL NOTES: total protein half-life in vivo (active degradation + dilution); higher = more stable protein
- SETUP CONDITIONS: wild type E. coli NCM3722; growth: N-lim chemostat; doubling time 6 h
Please reply with the bare figure in h and do not write the unit itself.

Example entries begin here.
MALLDFFLSRKKNTANIAKERLQIIVAERRRSDAEPHYLPQLRKDILEVICKYVQIDPEMVTVQLEQKDGDISILELNVTLPEAEELK [P0A734] : 3.63
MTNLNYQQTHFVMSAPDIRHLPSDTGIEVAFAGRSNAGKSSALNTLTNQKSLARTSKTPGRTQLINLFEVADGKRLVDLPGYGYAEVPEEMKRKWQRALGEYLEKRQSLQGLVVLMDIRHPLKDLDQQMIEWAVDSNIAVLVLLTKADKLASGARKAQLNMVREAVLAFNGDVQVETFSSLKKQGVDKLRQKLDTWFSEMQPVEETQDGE [P0A6P7] : 5.08
MIISAASDYRAAAQRILPPFLFHYMDGGAYSEYTLRRNVEDLSEVALRQRILKNMSDLSLETTLFNEKLSMPVALAPVGLCGMYARRGEVQAAKAADAHGIPFTLSTVSVCPIEEVAPAIKRPMWFQLYVLRDRGFMRNALERAKAAGCSTLVFTVDMPTPGARYRDAHSGMSGPNAAMRRYLQAVTHPQWAWDVGLNGRPHDLGNISAYLGKPTGLEDYIGWLGNNFDPSISWKDLEWIRDFWDGPMVIKGILDPEDARDAVRFGADGIVVSNHGGRQLDGVLSSARALPAIADAVKGDIAILADSGIRNGLDVVRMIALGADTVLLGRAFLYALATAGQAGVANLLNLIEKEMKVAMTLTGAKSISEITQDSLVQGLGKELPAALAPMAKGNAA : 3.73

Below: the item to evaluate.
Tell me measured total protein half-life in vivo for MTVKQTVEITNKLGMHARPAMKLFELMQGFDAEVLLRNDEGTEAEANSVIALLMLDSAKGRQIEVEATGPQEEEALAAVIALFNSGFDED [P0A9N0] please. 2.7
